Where do these numbers come from? They come from paper PMC3422223.

molecular target: T1, CCL3 (Homo sapiens, UniProt P10147, biotin (sulfo-NHS-LC-biotin) in the Biacore and streptavidin-plate ELISA experiments; not biotinylated where coated directly); assay: SPR; Biacore 2000; biotinylated CCL3, CCL4, CCL5 immobilised on a streptavidin chip (~100 RU); Fabs flowed over at 500 pM to 1 µM; regeneration 10 mM glycine pH 1.5; triplicate; 1:1 Langmuir fit, murine and humanized 18V4F Fabs fit to a steady state model; conditions: both partners purified
T1 construct: CCL3, human, recombinant chemokine from PeproTech
T1 sequence (P10147 24-92): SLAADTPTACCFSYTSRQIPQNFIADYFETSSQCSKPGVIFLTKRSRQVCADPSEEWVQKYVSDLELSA

{"binder": "18V4F Fab variant d7 (Fab, V domains shown) VH: EVQLVESGGGLVQPGGSLRLSCAASGFSLYDEGAHWVRQAPGKGLEWVGVIWPGGGTNYNSALMSRFTISKDNSKNTVYLQMNSLRAEDTAVYYCARGPLITTEVSMDYWGQGTLVTVSS VL: SAEVTQPPSVSVSPGQTARITCSSNTGAVTTSNYANWVQQKPGQAPVGLIGGTNERPSGIPERFSGSSSGNTATLTISGAQAEDEADYYCALWYSNHWVFGGGTKLTVL", "Kd, nM": 35}
{"binder": "humanized 18V4F Fab (Fab, V domains shown, also called Hu-18V4F) VH: EVQLVESGGGLVQPGGSLRLSCAASGFSLTGYAMHWVRQAPGKGLEWVGVIWPGGGTNYNSALMSRFTISKDNSKNTVYLQMNSLRAEDTAVYYCARGPLITTEVSMDYWGQGTLVTVSS VL: SAEVTQPPSVSVSPGQTARITCSSNTGAVTTSNYANWVQQKPGQAPVGLIGGTNERPSGIPERFSGSSSGNTATLTISGAQAEDEADYYCALWYSNHWVFGGGTKLTVL", "Kd, nM": 272}
{"binder": "murine 18V4F Fab (Fab, V domains shown, also called Mu-18V4F) VH: QVQLKESGPGLVAPSQSLSITCTVSGFSLTGYGIHWVRQPPGKGLEWLGVIWPGGGTNYNSALMSRLSISKDNSKSQVFLKMNSLQTDDTAMYYCARGPLITTEVSMDYWGQGTSVTVSS VL: QAVVTQESALTTSPGETVTLTCRSNTGAVTTSNYANWVQEKPDHLFTGLIGGTNNRAPGVPARFSGSLIGDKAALTITGAQTEDEAIYFCALWYSNHWVFGGGTKLTVL", "Kd, nM": 209}
{"binder": "18V4F Fab variant d5 (Fab, V domains shown) VH: EVQLVESGGGLVQPGGSLRLSCAASGFSLTGYAMHWVRQAPGKGLEWVGVIWPGGGTNYNSALMSRFTISKDNSKNTVYLQMNSLRAEDTAVYYCARGPLITTEVSMDYWGQGTLVTVSS VL: SAEVTQPPSVSVSPGQTARITCSSNTPLRPYRNYANWVQQKPGQAPVGLIGGTNERPSGIPERFSGSSSGNTATLTISGAQAEDEADYYCALWYSNHWVFGGGTKLTVL", "Kd, nM": 30.4}
{"binder": "d5d7 Fab (Fab, V domains shown, also called 18V4F Fab variant d5d7; not shown: His6, C-terminal, kept) VH: EVQLVESGGGLVQPGGSLRLSCAASGFSLYDEGAHWVRQAPGKGLEWVGVIWPGGGTNYNSALMSRFTISKDNSKNTVYLQMNSLRAEDTAVYYCARGPLITTEVSMDYWGQGTLVTVSS VL: SAEVTQPPSVSVSPGQTARITCSSNTPLRPYRNYANWVQQKPGQAPVGLIGGTNERPSGIPERFSGSSSGNTATLTISGAQAEDEADYYCALWYSNHWVFGGGTKLTVL", "Kd, nM": 8.5}
